- Test system: HLA-B15
- Method: REVEAL binding assay
- Measurement parameters: score as percentage of the signal generated by the positive control peptide
Threshold check on REVEAL binding score, HLA-type B15: at or above 9% gives 1, strictly below gives 0.

Check the entry "LMGYIPLVG" : does REVEAL binding score, HLA-type B15 equal or exceed 9%? 1

Check the entry "VTGNIPGST" : does REVEAL binding score, HLA-type B15 equal or exceed 9%? 0

---

The following substances are listed with their measured REVEAL binding score, HLA-type A3 values.
- System name: HLA-A3 (Homo sapiens)
- Sequence (P04439 25-299): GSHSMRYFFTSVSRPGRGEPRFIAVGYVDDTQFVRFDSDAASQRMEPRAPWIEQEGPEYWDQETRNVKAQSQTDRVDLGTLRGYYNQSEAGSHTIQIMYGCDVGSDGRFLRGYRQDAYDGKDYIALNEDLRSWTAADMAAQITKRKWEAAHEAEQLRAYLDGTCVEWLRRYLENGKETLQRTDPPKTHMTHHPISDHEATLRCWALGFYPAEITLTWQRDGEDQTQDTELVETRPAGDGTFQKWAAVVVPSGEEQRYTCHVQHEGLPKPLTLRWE
- Sequence (P61769 21-119, further chain): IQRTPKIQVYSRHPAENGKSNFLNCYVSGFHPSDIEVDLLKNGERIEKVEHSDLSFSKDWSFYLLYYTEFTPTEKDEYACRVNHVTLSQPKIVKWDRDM
- Method: REVEAL binding assay
- Measurement parameters: score as percentage of the signal generated by the positive control peptide
The figure you give is taken to be in %; do not add the unit.

Examples with their reported REVEAL binding score, HLA-type A3 follow.
1. GGQIIGGNY; 2.23
2. ARALAHGVR; 2.35
3. LPAVGAPIG; 3.02
4. IIGGNYLIP; 3.88
5. RNLGRVIET; 5.52
6. TFSIYLIVS; 0.91

Quick check: REVEAL binding score, HLA-type A3 on HLA-A3 (Homo sapiens), item "SRNLGKVID" ? 3.46

Quick check: REVEAL binding score, HLA-type A3 on HLA-A3 (Homo sapiens), item "GYLPAVGAP" ? 2.90

Quick check: REVEAL binding score, HLA-type A3 on HLA-A3 (Homo sapiens), item "YLPAVGAPI" ? 2.58

Quick check: REVEAL binding score, HLA-type A3 on HLA-A3 (Homo sapiens), item "NYATGNLPG" ? 8.65

---

- Tested on: HLA-B14
- Method: REVEAL binding assay
- Measurement parameters: score as percentage of the signal generated by the positive control peptide
Where no end group is shown, it is not given here. [ ]: non-standard residue; d: D form. Nle = CCCC[C@H](N)C(=O)O
Property label: REVEAL binding score, HLA-type B14 (%)
The figure you give is taken to be in %; do not add the unit.

Examples with their reported REVEAL binding score, HLA-type B14 follow.
1) VIRVIAHGL; 0.55
2) LPAVGAPIG; 0.12
3) [Nle]GYIPLIGA; 0.29

Please report the recorded REVEAL binding score, HLA-type B14 for "NLPGCSFSI" . 0.36

Please report the recorded REVEAL binding score, HLA-type B14 for "RLGVRATRK" . 0.07

Please report the recorded REVEAL binding score, HLA-type B14 for "VGGVYLLPR" . 0.44

Please report the recorded REVEAL binding score, HLA-type B14 for "IPLVGAPLG" . 0.03

Please report the recorded REVEAL binding score, HLA-type B14 for "NYATGNLPG" . 0.79

Please report the recorded REVEAL binding score, HLA-type B14 for "RNLGRVIET" . 0.26

---

- Test system: HLA-B15
- Method: REVEAL binding assay
- Measurement parameters: score as percentage of the signal generated by the positive control peptide
The following substances are listed with their measured REVEAL binding score, HLA-type B15 values.
Quick note: unit goes after the number.

Examples with their reported REVEAL binding score, HLA-type B15 follow.
1. RNLGRVIET; 8.84%
2. PRLGVRATR; 10.04%
3. KVIDTLTCG; 10.13%

Please report the recorded REVEAL binding score, HLA-type B15 for "IGGNYLIPR" . 15.02%

Please report the recorded REVEAL binding score, HLA-type B15 for "MGYIPLVGA" . 8.85%

Please report the recorded REVEAL binding score, HLA-type B15 for "ITFSIYLIV" . 6.68%
